Molecular target: MC3R (Homo sapiens, UniProt P41968)
Construct: purchased Promega (in-house HiBiT-GPCR construct library, NanoBRET)
Sequence (P41968 whole entry): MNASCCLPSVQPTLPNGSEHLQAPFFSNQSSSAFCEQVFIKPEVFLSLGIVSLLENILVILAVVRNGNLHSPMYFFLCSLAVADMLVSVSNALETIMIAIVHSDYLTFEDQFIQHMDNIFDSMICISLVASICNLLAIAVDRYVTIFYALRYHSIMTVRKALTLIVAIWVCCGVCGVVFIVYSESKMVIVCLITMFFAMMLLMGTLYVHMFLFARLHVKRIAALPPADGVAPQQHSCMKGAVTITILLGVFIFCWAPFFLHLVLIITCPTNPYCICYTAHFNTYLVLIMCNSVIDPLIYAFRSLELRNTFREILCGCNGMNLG
Experiment: NanoBRET screen HiBiT-MC3R in HEK293
Format: binding
Details: MC3R; tracer 0.1μM
We begin with a simple list: items and their reported NanoBRET Fold Response.
Form: value (number only, do not type unit).

Guide cases for NanoBRET Fold Response, answers given:
Value lookup for NanoBRET Fold Response; key = Cc1cc2c(s1)Nc1ccccc1N=C2N1CCN(CCCNC(=O)CCOCCOCCOCCOCCNC(=O)CCc2ccc3n2[B-](F)(F)[N+]2=C(c4ccc[nH]4)C=CC2=C3)CC1 [Olanzapine-a-2-NB590] 1.00

Value lookup for NanoBRET Fold Response; key = O=C(CCOCCOCCOCCOCCNC(=O)CCc1ccc2n1[B-](F)(F)[N+]1=C(c3ccc[nH]3)C=CC1=C2)NCCCN1CCN(C2=Nc3ccccc3Oc3ccc(Cl)cc32)CC1 [Loxapine-a-2-NB590] 1.00

Value lookup for NanoBRET Fold Response; key = CC(C)N(CC[C@H](c1ccccc1)c1cc(CCNC(=O)c2ccc(CNC(=O)CCc3ccc4n3[B-](F)(F)[N+]3=C(c5ccc[nH]5)C=CC3=C4)cc2)ccc1O)C(C)C [Tolterodine-BZ-NB590] 1.03

Value lookup for NanoBRET Fold Response; key = O=C(CCc1ccc2n1[B-](F)(F)[N+]1=C(c3ccc[nH]3)C=CC1=C2)NCCOCCOCCNC(=O)OCCOCCN1CCN(C2=Nc3ccccc3Sc3ccccc32)CC1 [Quetiapine-a-2-NB590] 0.98

Here is another compound to look at.
Value lookup for NanoBRET Fold Response; key = CC(C)N(CC[C@H](c1ccccc1)c1cc(CCNC(=O)CCOCCOCCOCCOCCNC(=O)CCc2ccc3n2[B-](F)(F)[N+]2=C(c4ccc[nH]4)C=CC2=C3)ccc1O)C(C)C [Tolterodine-2-NB590] 0.82

====

Target: NPY4R (Homo sapiens)
Construct: purchased Promega (in-house HiBiT-GPCR construct library, NanoBRET)
Sequence (P50391 whole entry): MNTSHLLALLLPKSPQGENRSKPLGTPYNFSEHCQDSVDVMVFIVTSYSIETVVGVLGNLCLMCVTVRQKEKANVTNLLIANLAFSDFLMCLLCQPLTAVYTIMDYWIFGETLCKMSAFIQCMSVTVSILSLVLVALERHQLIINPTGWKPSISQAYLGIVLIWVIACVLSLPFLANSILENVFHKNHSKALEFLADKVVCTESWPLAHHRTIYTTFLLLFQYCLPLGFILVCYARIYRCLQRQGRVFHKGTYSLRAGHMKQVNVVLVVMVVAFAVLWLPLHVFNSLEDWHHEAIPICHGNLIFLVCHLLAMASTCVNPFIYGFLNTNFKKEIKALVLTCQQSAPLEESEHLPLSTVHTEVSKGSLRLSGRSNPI
Experiment: NanoBRET screen HiBiT-NPY4R in HEK293
Type: binding
Conditions: NPY4R; tracer 0.1μM
We begin with a simple list: items and their reported NanoBRET Fold Response.
Form: value (number only, do not type unit).

Missing value: NanoBRET Fold Response, NPY4R (Homo sapiens), entry O=C(CCc1ccc2n1[B-](F)(F)[N+]1=C(c3ccc[nH]3)C=CC1=C2)NCCOCCOCCNC(=O)OCCOCCN1CCN(C2=Nc3ccccc3Sc3ccccc32)CC1 . Fill in? 1.06

---
Missing value: NanoBRET Fold Response, NPY4R (Homo sapiens), entry N#CN=C(NCCCOc1cccc(CN2CCCCC2)c1)NCCNC(=O)CCOCCOCCOCCOCCNC(=O)CCc1ccc2n1[B-](F)(F)[N+]1=C(c3ccc[nH]3)C=CC1=C2 . Fill in? 1.01

Missing value: NanoBRET Fold Response, NPY4R (Homo sapiens), entry O=C(CCc1ccc2n1[B-](F)(F)[N+]1=C(c3ccc[nH]3)C=CC1=C2)NCc1ccc(C(=O)NCCOCCC(=O)N[C@@H]2CC[C@@]3(O)[C@H]4Cc5ccc(O)c6c5[C@@]3(CCN4CC3CC3)[C@H]2O6)cc1 [Naltrexone-3-NB590] . Fill in? 1.04

Missing value: NanoBRET Fold Response, NPY4R (Homo sapiens), entry Cc1nc2n(c(=O)c1CCN1CCC(c3noc4cc(F)ccc34)CC1)CCCC2OC(=O)NCCOCCOCCOCCOCCNC(=O)CCc1ccc2n1[B-](F)(F)[N+]1=C(c3ccc[nH]3)C=CC1=C2 (centres unmarked) . Fill in? 0.95

Missing value: NanoBRET Fold Response, NPY4R (Homo sapiens), entry CC(C)N(CC[C@H](c1ccccc1)c1cc(CCNC(=O)c2ccc(CNC(=O)CCc3ccc4n3[B-](F)(F)[N+]3=C(c5ccc[nH]5)C=CC3=C4)cc2)ccc1O)C(C)C . Fill in? 0.88
